system: HCC-44; assay: relative viability (nuclei count vs DMSO), 5 days (fraction); higher = more cells survive; conditions: first compound 50 µM
Measured relative viability of individual entries
I'd appreciate a reply containing only the number, no unit.

Reference set, count: 2
compound: O=C(O)CCCCC(CCSCc1ccccc1)SCc1ccccc1 (stereo not drawn) [CPI-613] + Nc1ncn([C@H]2C[C@H](O)[C@@H](CO)O2)c(=O)n1 [Decitabine] (partner 2 µM)
relative viability: 0.922
--
compound: O=C(O)CCCCC(CCSCc1ccccc1)SCc1ccccc1 (stereo not drawn) [CPI-613] + Nc1nc2[nH]cc(CCc3ccc(C(=O)N[C@@H](CCC(=O)O)C(=O)O)cc3)c2c(=O)[nH]1 [Pemetrexed] (partner 0.2 µM)
relative viability: 0.592

Report relative viability for O=C(O)CCCCC(CCSCc1ccccc1)SCc1ccccc1 (stereo not drawn) [CPI-613] + CS(=O)(=O)CCNCc1ccc(-c2ccc3ncnc(Nc4ccc(OCc5cccc(F)c5)c(Cl)c4)c3c2)o1 [Lapatinib] (partner 2 µM) please. 1.04
